Target: T1, human serum albumin (HSA), full length (human, UniProt P02768 25-609)
T1 construct: mature; Immobilized on CM5 chip (SPR) or coated on plates (ELISA)
T1 sequence (P02768 25-609): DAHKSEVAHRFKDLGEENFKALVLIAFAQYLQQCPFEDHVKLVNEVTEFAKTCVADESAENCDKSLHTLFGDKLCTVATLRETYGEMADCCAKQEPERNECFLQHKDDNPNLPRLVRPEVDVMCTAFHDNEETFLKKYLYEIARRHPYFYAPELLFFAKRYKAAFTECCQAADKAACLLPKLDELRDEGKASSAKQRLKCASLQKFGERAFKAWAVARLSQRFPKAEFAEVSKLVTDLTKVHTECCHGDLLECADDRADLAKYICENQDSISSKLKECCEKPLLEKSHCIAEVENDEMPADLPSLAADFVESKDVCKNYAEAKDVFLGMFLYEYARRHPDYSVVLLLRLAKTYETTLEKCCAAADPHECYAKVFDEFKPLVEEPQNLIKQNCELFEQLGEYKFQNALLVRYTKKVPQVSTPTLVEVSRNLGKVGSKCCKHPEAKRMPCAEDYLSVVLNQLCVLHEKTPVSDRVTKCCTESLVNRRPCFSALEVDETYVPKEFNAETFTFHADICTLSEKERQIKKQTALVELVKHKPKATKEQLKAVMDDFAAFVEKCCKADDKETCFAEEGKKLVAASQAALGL
Experiment: SPR off-rate ratio to parent ADX_7016_A01, HSA, 25 C
measurement_label: HSA kd/Parent kd
Numbers only.

Some entries whose results are on file:
HSA kd/Parent kd recorded for this binder, ADX_6727_B05 (I43S/K85T) (designed binder, Full His6-tagged entry) MGVSDVPRDLEVVAATPTSLLISWDAPAVTVRYYRITYGREVQKYSDLGPLYSYQEFTVPGSKSTATISGLKPGVDYTITVYAVTGSGESPASSTPISINYRTEIDKPSQHHHHHH , is 28

HSA kd/Parent kd for ADX_6727_F06 (L41A/K85T) (designed binder, Full His6-tagged entry) MGVSDVPRDLEVVAATPTSLLISWDAPAVTVRYYRITYGREVQKYSDLGPAYIYQEFTVPGSKSTATISGLKPGVDYTITVYAVTGSGESPASSTPISINYRTEIDKPSQHHHHHH is 11

# binder ADX_6727_C03 (Y35S) (designed binder, Full His6-tagged entry) MGVSDVPRDLEVVAATPTSLLISWDAPAVTVRYYRITYGREVQKSSDLGPLYIYQEFTVPGSKSTATISGLKPGVDYTITVYAVTGSGESPASSKPISINYRTEIDKPSQHHHHHH ; its HSA kd/Parent kd = 4

The recorded HSA kd/Parent kd for ADX_6727_C07 (R30A/K85S) (designed binder, Full His6-tagged entry) MGVSDVPRDLEVVAATPTSLLISWDAPAVTVRYYRITYGAEVQKYSDLGPLYIYQEFTVPGSKSTATISGLKPGVDYTITVYAVTGSGESPASSSPISINYRTEIDKPSQHHHHHH is 8

Entry ADX_6727_D06 (Y44A/K85S) (designed binder, Full His6-tagged entry) MGVSDVPRDLEVVAATPTSLLISWDAPAVTVRYYRITYGREVQKYSDLGPLYIAQEFTVPGSKSTATISGLKPGVDYTITVYAVTGSGESPASSSPISINYRTEIDKPSQHHHHHH , HSA kd/Parent kd reported as 20

State the recorded HSA kd/Parent kd for every item in the following list.
1. ADX_6727_B01 (K85S) (designed binder, Full His6-tagged entry) MGVSDVPRDLEVVAATPTSLLISWDAPAVTVRYYRITYGREVQKYSDLGPLYIYQEFTVPGSKSTATISGLKPGVDYTITVYAVTGSGESPASSSPISINYRTEIDKPSQHHHHHH
2. ADX_6727_H02 (I43S) (designed binder, Full His6-tagged entry) MGVSDVPRDLEVVAATPTSLLISWDAPAVTVRYYRITYGREVQKYSDLGPLYSYQEFTVPGSKSTATISGLKPGVDYTITVYAVTGSGESPASSKPISINYRTEIDKPSQHHHHHH
3. ADX_6727_F03 (I43Y as printed in Table 4; I43A in Table 7) (designed binder, Full His6-tagged entry) MGVSDVPRDLEVVAATPTSLLISWDAPAVTVRYYRITYGREVQKYSDLGPLYAYQEFTVPGSKSTATISGLKPGVDYTITVYAVTGSGESPASSKPISINYRTEIDKPSQHHHHHH
4. ADX_6727_G01 (L41A) (designed binder, Full His6-tagged entry) MGVSDVPRDLEVVAATPTSLLISWDAPAVTVRYYRITYGREVQKYSDLGPAYIYQEFTVPGSKSTATISGLKPGVDYTITVYAVTGSGESPASSKPISINYRTEIDKPSQHHHHHH

Given back:
[1.2, 52, 17, 14]
